Target: sigma-2 receptor (Rattus norvegicus)
Sequence (Q5U3Y7 1-176): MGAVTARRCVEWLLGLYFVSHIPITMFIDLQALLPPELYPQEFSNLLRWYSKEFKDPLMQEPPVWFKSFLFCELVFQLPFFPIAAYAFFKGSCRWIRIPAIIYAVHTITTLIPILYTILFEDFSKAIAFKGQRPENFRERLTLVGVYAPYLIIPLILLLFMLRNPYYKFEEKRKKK
endpoint.name: pKi
Remember the convention: pKi equals -log10 of concentration in molar.

Data request: Param item = O[C@@H](CN1[C@@H]2CC[C@H]1CC(c1ccccc1)C2)c1cccc(Br)c1 (stereo partly shown) [RHM-138] ; retrieve measured pKi.
Data returned: 7.91

====

molecular target: sigma-1 receptor (Cavia porcellus); test: radioligand competition with [3H]; format: binding; conditions: read-out: Ki for sigma-1 receptors
Sequence (Q60492 whole entry): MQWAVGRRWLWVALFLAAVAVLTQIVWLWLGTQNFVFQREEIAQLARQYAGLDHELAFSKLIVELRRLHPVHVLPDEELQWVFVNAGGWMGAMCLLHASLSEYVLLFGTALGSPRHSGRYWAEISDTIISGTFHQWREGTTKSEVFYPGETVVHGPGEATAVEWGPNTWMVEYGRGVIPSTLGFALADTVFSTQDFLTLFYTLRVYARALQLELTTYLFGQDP
endpoint.name: pKi
// field semantics: pKi = negative decimal log of concentration (mol/L)

Data request: Need pKi of O[C@@H](CN1[C@@H]2CC[C@H]1CC(c1ccccc1)C2)c1cccc(Br)c1 (stereo partly shown) , thanks.
Data returned: 6.26
